Each recorded value in this set is attributed to patent US20230357447A1.

# Test System: T1, Ab-12, anti-PD-L1xCD28 non-masked antibody in Vh format
# T1 construct: also called PDL1xCD28 non-masked (Vh)
# Test Method Notes: competition ELISA: peptide titrated against 5 nM Ab-12; binding of Ab-12 to captured biotinylated CD28 antigen is read; table prints 'IC50 nM' but the axis is Log [Peptide, uM] and the curve falls between Log 0.5 and Log 2
Ends that are not written are not given here.
Value Kind: IC50 (nM)
Please respond with the number in nM and leave the unit unwritten.

*Q* Please report the recorded IC50 for GYCHYWGDMVMWCG (cysteine pairing not given here; also: biotinylated, site not given here, also called Peptide-12_200 nM) [Peptide-12] .
*A* 21
